SYSTEM UNDER TEST: TLR7 (Homo sapiens)
Sequence (Q9NYK1 27-1049): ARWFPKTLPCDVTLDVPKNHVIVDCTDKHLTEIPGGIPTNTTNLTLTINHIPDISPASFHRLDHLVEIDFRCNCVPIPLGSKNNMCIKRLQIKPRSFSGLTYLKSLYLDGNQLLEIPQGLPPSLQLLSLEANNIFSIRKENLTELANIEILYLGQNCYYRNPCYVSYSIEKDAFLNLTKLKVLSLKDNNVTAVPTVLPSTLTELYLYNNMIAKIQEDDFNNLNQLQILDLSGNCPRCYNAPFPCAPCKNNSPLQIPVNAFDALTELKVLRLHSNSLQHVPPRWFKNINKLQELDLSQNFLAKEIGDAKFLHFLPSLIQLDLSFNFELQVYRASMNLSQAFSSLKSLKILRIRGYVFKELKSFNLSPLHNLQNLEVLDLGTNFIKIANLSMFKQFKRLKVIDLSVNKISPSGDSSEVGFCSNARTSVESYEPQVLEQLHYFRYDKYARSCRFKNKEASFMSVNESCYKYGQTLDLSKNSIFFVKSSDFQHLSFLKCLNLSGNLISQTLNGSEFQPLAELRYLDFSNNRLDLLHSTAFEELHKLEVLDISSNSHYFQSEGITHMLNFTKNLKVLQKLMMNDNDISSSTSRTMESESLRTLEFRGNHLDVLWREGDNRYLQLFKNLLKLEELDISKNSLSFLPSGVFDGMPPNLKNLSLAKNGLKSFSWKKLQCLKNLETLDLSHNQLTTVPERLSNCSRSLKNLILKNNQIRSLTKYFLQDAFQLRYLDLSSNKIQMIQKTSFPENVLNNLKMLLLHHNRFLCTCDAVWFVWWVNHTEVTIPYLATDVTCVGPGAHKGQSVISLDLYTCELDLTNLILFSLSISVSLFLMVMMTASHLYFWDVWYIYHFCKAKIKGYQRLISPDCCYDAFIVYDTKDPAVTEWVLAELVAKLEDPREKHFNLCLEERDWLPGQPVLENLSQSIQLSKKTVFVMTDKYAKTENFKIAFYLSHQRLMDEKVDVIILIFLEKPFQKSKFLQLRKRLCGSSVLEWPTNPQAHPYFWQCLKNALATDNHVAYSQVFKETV
PROTOCOL DETAILS: Human TLR7 reporter gene agonistic activity assay
Type: cell-based
Set-up: host or cells: HEK293 (TLR7/NF-κB/SEAPorter)
STATED CONDITIONS: compound 0.1 nM (as headed)
QUANTITY KIND: activation of human TLR7, reporter signal
Lab note: record just the number, no unit beside it.

Examples from the recorded data:
activation of human TLR7, reporter signal for CCOc1nc(C)c2nc(-c3cncc(F)c3)n(Cc3ccc(CN4C[C@@H]5C[C@H]4CN5C)cc3)c2n1 is -0.0434

The compound CCOc1nc(N)c2nc(-c3cncc(F)c3)n(Cc3ccc(CN4C[C@@H]5C[C@H]4CN5C)cc3)c2n1 showed activation of human TLR7, reporter signal equal to -0.074

// recorded activation of human TLR7, reporter signal for CCCCOc1nc(N)c2nc(-c3cccnc3)n(Cc3ccccc3)c2n1 : -0.0507

Attention now shifts to the item below.
Quick note, activation of human TLR7, reporter signal for CCOCc1nc2c(N)nc3ccccc3c2n1CC(C)(C)O [R848, reference compound] landed at 1.76

----------
SYSTEM UNDER TEST: TLR7 (Homo sapiens)
PROTOCOL DETAILS: Human TLR7 reporter gene agonistic activity assay
Assay type: cell-based
Design: host or cells: HEK293 (TLR7/NF-κB/SEAPorter)
STATED CONDITIONS: compound 3 nM (as headed)
QUANTITY KIND: activation of human TLR7, reporter signal
Answer using only a numeral; do not append any unit.

Given item CCOc1nc(N)c2nc(-c3cncc(F)c3)n(Cc3ccc(CN4C[C@@H]5C[C@H]4CN5C)cc3)c2n1 , the value recorded as its activation of human TLR7, reporter signal is -0.07475

Record CCOc1nc(C)c2nc(-c3cncc(F)c3)n(Cc3ccc(CN4C[C@@H]5C[C@H]4CN5C)cc3)c2n1 , field activation of human TLR7, reporter signal: -0.0693

Field activation of human TLR7, reporter signal (entry CCOCc1nc2c(N)nc3ccccc3c2n1CC(C)(C)O [R848, reference compound] ) reads 3.172

Read the next record carefully.
Sure, the documented activation of human TLR7, reporter signal for CCCCOc1nc(N)c2nc(-c3cccnc3)n(Cc3ccccc3)c2n1 is -0.0655
